# TESTED_ON: T1, cynomolgus monkey C-MET on stably transfected CHO-K1 cells (cynomolgus monkey, UniProt A0M8R7 25-1381 (Papio anubis entry))
# T1 construct: also called cycMET; cyno C-MET+ CHO-K1 cells
# TEST_DETAILS: flow cytometry, C-MET CHO-K1 cells
READOUT_TYPE: maximum MFI, fold over Isotype IgG4 background

INPUT: Output maximum MFI, fold over Isotype IgG4 background of MH4 (antibody, IgG4, V domains shown) VH: QVQLVQSGAEVKKPGASVKVSCKASGYTFTSYTMHWVRQAPGQGLEWMGWINPSGGSTSYAQKFQGRVTMTRDTSTSTVYMELSSLRSEDTAVYYCARQEITTEFDYWGQGTLVTVSS VL: EIVLTQSPGTLSLSPGERATLSCRASQSVSSYANSYLHWYQQKPGQAPRLLIYRGSTRESGIPDRFSGSGSGTDFTLTISRLEPEDFAVYYCQQSKSEPLTFGGGTKVEIK
OUTPUT: > 10 fold
